Heads up, these compounds all have log10(MIC) values measured for Mycobacterium smegmatis ATCC 114.
// stored as log10 of MIC expressed in µg/mL

Query: What log10(MIC) appears in the records for this compound with Mycobacterium smegmatis ATCC 114? CC[C@H]1OC(=O)[C@H](C)[C@@H](O[C@H]2C[C@@](C)(OC)[C@@H](O)[C@H](C)O2)[C@H](C)[C@@H](O[C@@H]2O[C@H](C)C[C@H](N(C)C)[C@H]2O)[C@](C)(OCC=O)C[C@@H](C)C(=O)[C@H](C)[C@@H](O)[C@]1(C)O
Response: 0.79

Query: What log10(MIC) appears in the records for this compound with Mycobacterium smegmatis ATCC 114? CC[C@H]1OC(=O)[C@H](C)[C@@H](O[C@H]2C[C@@](C)(OC)[C@@H](O)[C@H](C)O2)[C@H](C)[C@@H](O[C@@H]2O[C@H](C)C[C@H](N(C)C)[C@H]2O)[C@](C)(OCC(O)Cn2ccnc2)C[C@@H](C)C(=O)[C@H](C)[C@@H](O)[C@]1(C)O (stereo partly drawn)
Response: 0.19

Query: What log10(MIC) appears in the records for this compound with Mycobacterium smegmatis ATCC 114? CC[C@H]1OC(=O)[C@H](C)[C@@H](O[C@H]2C[C@@](C)(OC)[C@@H](O)[C@H](C)O2)[C@H](C)[C@@H](O[C@@H]2O[C@H](C)C[C@H](N(C)C)[C@H]2O)[C@](C)(OCC(O)CNCc2ccccc2)C[C@@H](C)C(=O)[C@H](C)[C@@H](O)[C@]1(C)O (stereo partly drawn)
Response: -0.70

Query: What log10(MIC) appears in the records for this compound with Mycobacterium smegmatis ATCC 114? CC[C@H]1OC(=O)[C@H](C)[C@@H](O[C@H]2C[C@@](C)(OC)[C@@H](O)[C@H](C)O2)[C@H](C)[C@@H](O[C@@H]2O[C@H](C)C[C@H](N(C)C)[C@H]2O)[C@](C)(OCC(O)CN2CCOCC2)C[C@@H](C)C(=O)[C@H](C)[C@@H](O)[C@]1(C)O (stereo partly drawn)
Response: -0.70

Query: What log10(MIC) appears in the records for this compound with Mycobacterium smegmatis ATCC 114? CC[C@H]1OC(=O)[C@H](C)[C@@H](O[C@H]2C[C@@](C)(OC)[C@@H](O)[C@H](C)O2)[C@H](C)[C@@H](O[C@@H]2O[C@H](C)C[C@H](N(C)C)[C@H]2O)[C@](C)(OCC=NO)C[C@@H](C)C(=O)[C@H](C)[C@@H](O)[C@]1(C)O
Response: -0.11

Query: What log10(MIC) appears in the records for this compound with Mycobacterium smegmatis ATCC 114? CC[C@H]1OC(=O)[C@H](C)[C@@H](O[C@H]2C[C@@](C)(OC)[C@@H](O)[C@H](C)O2)[C@H](C)[C@@H](O[C@@H]2O[C@H](C)C[C@H](N(C)C)[C@H]2O)[C@](C)(OCC(O)CN=[N+]=[N-])C[C@@H](C)C(=O)[C@H](C)[C@@H](O)[C@]1(C)O (stereo partly drawn)
Response: -0.41

Query: What log10(MIC) appears in the records for this compound with Mycobacterium smegmatis ATCC 114? C#CCO[C@]1(C)C[C@@H](C)C(=O)[C@H](C)[C@@H](O)[C@](C)(O)[C@@H](CC)OC(=O)[C@H](C)[C@@H](O[C@H]2C[C@@](C)(OC)[C@@H](O)[C@H](C)O2)[C@H](C)[C@H]1O[C@@H]1O[C@H](C)C[C@H](N(C)C)[C@H]1O
Response: -0.41

Query: What log10(MIC) appears in the records for this compound with Mycobacterium smegmatis ATCC 114? CC[C@H]1OC(=O)[C@H](C)[C@@H](O[C@H]2C[C@@](C)(OC)[C@@H](O)[C@H](C)O2)[C@H](C)[C@@H](O[C@@H]2O[C@H](C)C[C@H](N(C)C)[C@H]2O)[C@](C)(OCC(C)=O)C[C@@H](C)C(=O)[C@H](C)[C@@H](O)[C@]1(C)O
Response: 0.49

Query: What log10(MIC) appears in the records for this compound with Mycobacterium smegmatis ATCC 114? CC[C@H]1OC(=O)[C@H](C)[C@@H](O[C@H]2C[C@@](C)(OC)[C@@H](O)[C@H](C)O2)[C@H](C)[C@@H](O[C@@H]2O[C@H](C)C[C@H](N(C)C)[C@H]2O)[C@](C)(OCC(O)CO)C[C@@H](C)C(=O)[C@H](C)[C@@H](O)[C@]1(C)O (stereo partly drawn)
Response: -0.11
